- Assay Procedure: AUC in Beagle dog at 6 mg/kg/day, po administered for 2 weeks
- Format: ADME, organism-based, Canis lupus familiaris
- Reported Conditions: in vivo
Attribute Measured: AUC at 336 h (ng·h/mL)
Your answer is read as ng·h/mL, so omit the unit and give the number.

I have this compound here, C[C@H]1SC(N)=N[C@](C)(c2cc(NC(=O)c3cnc(OCF)cn3)ccc2F)[C@H]1F , and I need its recorded AUC at 336 h.
41000

====

- Assay Procedure: Tmax in Cynomolgus monkey at 2.5 mg/kg, po by LC/MS/MS analysis
- Assay type: ADME, organism-based, Macaca fascicularis
- Reported Conditions: in vivo
Attribute Measured: Tmax (h)
Your answer is read as h, so omit the unit and give the number.

I have this compound here, C[C@H]1SC(N)=N[C@](C)(c2cc(NC(=O)c3cnc(OCF)cn3)ccc2F)[C@H]1F , and I need its recorded Tmax.
3

====

- Assay Procedure: Fraction unbound in rat plasma after 24 hrs by equilibrium dialysis based LC-MS/MS analysis
- Assay type: ADME, cell-free
Attribute Measured: fraction unbound at 24 h

I have this molecule here, C[C@H]1SC(N)=N[C@](C)(c2cc(NC(=O)c3cnc(OCF)cn3)ccc2F)[C@H]1F , and I need its recorded fraction unbound at 24 h.
0.12

====

- Assay Procedure: Unbound CSF to plasma concentration ratio in Beagle dog at 0.08 to […], po measured up to 49 hrs
- Format: ADME, organism-based, Canis lupus familiaris
- Reported Conditions: CSF and plasma
Attribute Measured: Kp uu at 49 h
Reply with the value as a number alone.

I have this compound here, C[C@H]1SC(N)=N[C@](C)(c2cc(NC(=O)c3cnc(OCF)cn3)ccc2F)[C@H]1F , and I need its recorded Kp uu at 49 h.
0.77

====

- Assay Procedure: Metabolic stability in dog hepatocytes at 2 uM incubated for 2 hr
- Type: ADME, cell-based, Canis lupus familiaris, Hepatocyte
- Reported Conditions: read-out: Stability
Attribute Measured: remaining at 2 h, 2 µM (%)
Your answer is read as %, so omit the unit and give the number.

I have this molecule here, C[C@H]1SC(N)=N[C@](C)(c2cc(NC(=O)c3cnc(OCF)cn3)ccc2F)[C@H]1F , and I need its recorded remaining at 2 h, 2 µM.
90

This collection of values is drawn from ChEMBL document CHEMBL4321815.
